- System: Leishmania donovani
- assay notes: Antimicrobial activity against SSG-resistant Leishmania donovani 39 promastigote assessed as inhibition of parasite growth after 72 hrs by MTS assay
- Assay type: functional, organism-based
- reported conditions: Leishmania donovani, 39, 72 h
test readout: IC50

Use the examples below as a reference point.
>  <structure smiles>
N#Cc1cc(CN(CCOCCOc2ccc(-c3cc(=O)c4ccccc4o3)cc2)CCOCCOc2ccc(-c3cc(=O)c4ccccc4o3)cc2)ccn1

>  <IC50>
> 50 µM

$$$$
>  <structure smiles>
Cc1ccc(S(=O)(=O)N(CCOCCOc2ccc(-c3cc(=O)c4ccccc4o3)cc2)CCOCCOc2ccc(-c3cc(=O)c4ccccc4o3)cc2)cc1

>  <IC50>
> 100 µM

$$$$

Attention now shifts to the item below.
Note to self: IC50 recorded for COC(=O)c1ccc(CN(CCOCCOc2ccc(-c3cc(=O)c4ccccc4o3)cc2)CCOCCOc2ccc(-c3cc(=O)c4ccccc4o3)cc2)cc1 was > 100 µM

* * *

Kindly supply the reported pIC50 values for the records listed here.
- Tested on: Leishmania donovani
- assay notes: Antimicrobial activity against wild-type Leishmania donovani AG83 promastigote assessed as inhibition of parasite growth after 72 hrs by MTS assay
- Type: functional, organism-based
- reported conditions: AG83, 72 h
pIC50: −log10 of the molar value.

>  <structure smiles>
O=c1cc(-c2ccc(OCCOCCN(CCOCCOc3ccc(-c4cc(=O)c5ccccc5o4)cc3)Cc3ccccc3F)cc2)oc2ccccc12

>  <pIC50>
< 4.00

$$$$
>  <structure smiles>
COC(=O)c1ccc(CN(CCOCCOc2ccc(-c3cc(=O)c4ccccc4o3)cc2)CCOCCOc2ccc(-c3cc(=O)c4ccccc4o3)cc2)cc1

>  <pIC50>
< 4.00

$$$$
>  <structure smiles>
O=c1cc(-c2ccc(OCCOCCOCCOCCOCCOCCOc3ccc(-c4cc(=O)c5c(O)cc(O)cc5o4)cc3)cc2)oc2cc(O)cc(O)c12

>  <pIC50>
< 4.62

$$$$
>  <structure smiles>
O=c1cc(-c2ccc(OCCOCCN(CCOCCOc3ccc(-c4cc(=O)c5ccccc5o4)cc3)Cc3cccc(F)c3)cc2)oc2ccccc12

>  <pIC50>
< 4.00

$$$$

Attention now shifts to the item below.
Note to self: pIC50 recorded for O=c1cc(-c2ccc(OCCOCCOCCOCCOc3ccc(-c4cc(=O)c5ccccc5o4)cc3)cc2)oc2ccccc12 was < 4.62

* * *

- System: Leishmania donovani
- assay notes: Antimicrobial activity against wild-type Leishmania donovani AG83 promastigote assessed as inhibition of parasite growth after 72 hrs by MTS assay
- Format: functional, organism-based
- reported conditions: AG83, 72 h
Kindly supply the reported pIC50 values for the records listed here.
One number for each entry, as −log10 of the molar value.

Use the examples below as a reference point.
>  <structure smiles>
O=c1cc(-c2ccc(OCCOCCN(CCOCCOc3ccc(-c4cc(=O)c5ccccc5o4)cc3)Cc3ccccn3)cc2)oc2ccccc12

>  <target desc>
Leishmania donovani

>  <observed value>
5.30

$$$$
>  <structure smiles>
Cc1c(-c2ccc(OCCOCCOCCOCCOCCOc3ccc(-c4oc5ccccc5c(=O)c4C)cc3)cc2)oc2ccccc2c1=O

>  <target desc>
Leishmania donovani

>  <observed value>
5.32

$$$$
>  <structure smiles>
O=c1cc(-c2ccc(OCCOCCOCCOCCOCCOCCOCCOCCOc3ccc(-c4cc(=O)c5ccccc5o4)cc3)cc2)oc2ccccc12

>  <target desc>
Leishmania donovani

>  <observed value>
5.30

$$$$
>  <structure smiles>
O=c1cc(-c2ccc(OCCOCCOCCOCCOCCOCCOCCOCCOCCOc3ccc(-c4cc(=O)c5ccccc5o4)cc3)cc2)oc2ccccc12

>  <target desc>
Leishmania donovani

>  <observed value>
5.03

$$$$
>  <structure smiles>
O=c1cc(-c2ccc(OCCOCCOCCOCCOCCOc3ccc(-c4cc(=O)c5ccc(F)cc5o4)cc3)cc2)oc2cc(F)ccc12

>  <target desc>
Leishmania donovani

>  <observed value>
5.39

$$$$

For every item below, please supply its pIC50.
1. CS(=O)(=O)N(CCOCCOc1ccc(-c2cc(=O)c3ccccc3o2)cc1)CCOCCOc1ccc(-c2cc(=O)c3ccccc3o2)cc1
2. N#Cc1cc(CN(CCOCCOc2ccc(-c3cc(=O)c4ccccc4o3)cc2)CCOCCOc2ccc(-c3cc(=O)c4ccccc4o3)cc2)ccn1

OUT:
1: 6.12; 2: 5.96

Note to self: pIC50 recorded for O=c1cc(-c2ccc(OCCOCCOCCOCCOc3ccc(-c4cc(=O)c5ccc(F)cc5o4)cc3)cc2)oc2cc(F)ccc12 was 5.59
